- System: SK-MEL-2 melanoma
- Method: NCI-60 one-dose screen, 48 h
- Assay Setup: 10 µM
The panel holds about 83,000 compounds, 20% with a hit somewhere; the sample as a whole holds those more often. The source made the active and inactive calls. How the source made its calls: active means growth percent below 10; inactive means the rest.
Would you mind answering with one of these outcomes? active, inactive

Recorded test outcome, item CN(CCO)c1oc(-c2ccccc2)nc1[P+](c1ccccc1)(c1ccccc1)c1ccccc1
active

Name the outcome recorded for O=c1nc(-c2ccccc2)cc(-c2cc3ccccc3nc2Cl)[nH]1 in the assay.
inactive

Record request — test call for COc1ccsc1/C=N/NC(=O)c1[nH]c2ccc(Br)cc2c1-c1ccccc1
inactive

Please let me know the test result on file for O=C(c1ccccc1)n1ccc(-c2cc3cc(Br)ccc3oc2=O)n1 .
inactive

GET /call?item= CCOC(=O)C1=C(N)N(c2ccc(C)cc2)C2=C(C(=O)CC(C)(C)C2)C1c1ccccc1OC (stereo not given) returns the recorded outcome of this test.
inactive

Record request — test call for COc1ccc2cc([C@H](C)C(=O)NCc3ccccc3)ccc2c1
inactive

----------
- System: HCT-15 colon
- Method: NCI-60 one-dose screen, 48 h (100 = growth as untreated, 0 = no growth, -100 = all killed)
- Assay Setup: 10 µM
Compounds without any hit were thinned out: in the full panel of roughly 83,000, 20% have a hit.
Threshold-based label: growth under 20% gives true (1), growth not under 20% gives false (0).

Some solved entries appear below for comparison.
Compound	Assigned Class
O=C(Nc1ccc(I)cc1)Nc1nc2ccc([N+](=O)[O-])cc2s1	true (1)
O=S(=O)(Nc1ncccn1)c1ccc(-n2c(-c3ccc(Br)cc3)nc(-c3ccccc3)c2-c2ccccc2)cc1	false (0)
O=C(CSc1nnc(-c2c[nH]c3ccccc23)n1-c1ccccc1)c1ccccc1	false (0)

Is 20% strictly greater than the compound's reported growth? compound: O=C(Cc1ccc2c(c1)CN(C1CCC(=O)NC1=O)C2=O)NCc1cccc2ccccc12 (stereo not drawn)
true (1)

# check: growth < 20% for CC(C)CCSc1nc(NC2CC2)c(C#N)c(-c2ccc(C(C)C)cc2)n1
false (0)

Is it true that growth reported for CCOP(=O)(OCC)O[C@H]1CCC(=O)[C@@H]2[C@H]1[C@H]1C[C@@H]3[C@@]4(C)CCCC(C)(C(=O)OC)[C@@H]4CC[C@@]23C=C1C(C)C (stereo partly drawn) is less than 20%?
false (0)

Given the entry COc1ccc2nc(Nc3cccc(NC(=O)c4ccc(CN5CCN(C)CC5)c(C(F)(F)F)c4)c3)ccc2c1 , would its reported growth be below 20%?
true (1)

Is growth of C/C(=C\c1ccc(O)cc1O)c1ccc2ccc(O)cc2[o+]1 strictly below 20%?
true (1)

Problem: For the compound NS(=O)(=O)c1ccc(N=Nc2c(O)n(CC(=O)Nc3ccccc3Br)c3ccccc23)cc1 , is growth under 20%?
false (0)

----------
- Tested on: HOP-62 NSCLC
- Method: NCI-60 one-dose screen, 48 h (100 = growth as untreated, 0 = no growth, -100 = all killed)
- Assay Setup: 10 µM
The panel holds about 83,000 compounds, 20% with a hit somewhere; the sample as a whole holds those more often.
Entries and their growth
Quick note: give the figure in %, leave out the unit.

The examples below pair each entry with its known result.
Compound	Unit String	growth
COc1ccc(C2N(c3ccc(Br)cc3)N=C(C(C)=O)N2[C@H]2[C@H](OC(C)=O)O[C@H](COC(C)=O)[C@@H](OC(C)=O)[C@@H]2OC(C)=O)cc1 (some centres not stated)	%	92
O=C(c1ccc(O)cc1)C1[C@H](c2ccc(Br)cc2)[C@@H](c2ccccc2)NC12C(=O)Nc1ccc(Br)cc12 (some centres not stated)	%	-36.2

So what does the record say about growth for CC1(c2ccccc2)NC(=O)N(CC(=O)Nc2ccc(C(=O)/C=C/c3ccc(Br)cc3)cc2)C1=O (configuration not stated) ?
61.9

Quick check: growth of CN1CCN(c2ccc(C(=O)/C=C/c3cc(C(F)(F)F)ccc3Cl)cc2)CC1 ?
-27.4

Quick one: growth for CC(=O)c1ccc(Nc2nc(SCCC(C)C)nc(-c3ccc(F)cc3)c2C#N)cc1 ?
41.1

Data origin: PubChem BioAssay (NCI)
